# system tested: HIV-1 Env of strain CAP45.2.00.G3 (HIV-1)
Reported values of In vitro neutralization IC50 for individual entries
Numbers only here, please. The scale is µg/mL.

Here is how some binders turned out for In vitro neutralization IC50.
Q. So what's the measured In vitro neutralization IC50 for this one? 3BNC117 IgG (wild type) (antibody) heavy: QVQLLQSGAAVTKPGASVRVSCEASGYNIRDYFIHWWRQAPGQGLQWVGWINPKTGQPNNPRQFQGRVSLTRHASWDFDTFSFYMDLKALRSDDTAVYFCARQRSDYWDFDVWGSGTQVTVSS light: DIQMTQSPSSLSASVGDTVTITCQANGYLNWYQQRRGKAPKLLIYDGSKLERGVPSRFSGRRWGQEYNLTINNLQPEDIATYFCQVYEFVVPGTRLDLKRTVA
A. 16

Q. Item: 12A12 IgG (wild type) (antibody, V domains shown) VH: SQHLVQSGTQVKKPGASVRISCQASGYSFTDYVLHWWRQAPGQGLEWMGWIKPVYGARNYARRFQGRINFDRDIYREIAFMDLSGLRSDDTALYFCARDGSGDDTSWHLDPWGQGTLVIVSA VL: DIQMTQSPSSLSASVGDRVTITCQAGQGIGSSLQWYQQKPGKAPKLLVHGASNLHRGVPSRFSGSGFHTTFSLTISGLQRDDFATYFCAVLEFFGPGTKVEIKR
A. 0.4

Now consider a different binder.
Q. So what's the measured In vitro neutralization IC50 for this one? 3BNC60 IgG (wild type) (antibody) heavy: QVHLSQSGAAVTKPGASVRVSCEASGYKISDHFIHWWRQAPGQGLQWVGWINPKTGQPNNPRQFQGRVSLTRQASWDFDTYSFYMDLKAVRSDDTAIYFCARQRSDFWDFDVWGSGTQVTVSS light: DIQMTQSPSSLSARVGDTVTITCQANGYLNWYQQRRGKAPKLLIYDGSKLERGVPARFSGRRWGQEYNLTINNLQPEDVATYFCQVYEFIVPGTRLDLKRTVA
A. 10
